Origin of the recorded values: the supplement of paper PMC10567573

B1: HESX1 (parent)
chain: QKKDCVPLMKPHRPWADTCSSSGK

Variants of: B1
Assay: protein stability index of a GFP-peptide fusion (GPS, HEK-293T) (PSI 1-6); higher = more stable;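 note: lentivirally expressed fusions sorted by FACS into six bins by GFP to DsRed ratio, PSI derived from sequencing read proportions per bin multiplied by bin number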
Conditions: c terminus: a fixed tail appended
Parameter: protein stability index
Just the number.

Record Sequence	protein stability index
QKKDCVPLMKPHRPWDDTCSSSGK [A16D]	4.66
QEKDCVPLMKPHRPWADTCSSSGK [K2E]	4.16
QKKDEVPLMKPHRPWADTCSSSGK [C5E]	4.15
QKKDCVPLMKPHHPWADTCSSSGK [R13H]	3.6
QKKDVVPLMKPHRPWADTCSSSGK [C5V]	3.78
QKKDCVPLMKPHWPWADTCSSSGK [R13W]	3.4
QTKDCVPLMKPHRPWADTCSSSGK [K2T]	3.67
QKKRCVPLMKPHRPWADTCSSSGK [D4R]	2.43
QKCDCVPLMKPHRPWADTCSSSGK [K3C]	3.27
QKKDCVPLMKPHGPWADTCSSSGK [R13G]	4.21

Input line: Provide measured protein stability index value, entry: QKKDCVPLMHPHRPWADTCSSSGK [K10H]
Output line: 3.79

Input line: Quick one: give measured protein stability index for QKKDCVPLLKPHRPWADTCSSSGK [M9L]
Output line: 3.41

Input line: Report protein stability index for QKKDCGPLMKPHRPWADTCSSSGK [V6G]
Output line: 3.46

Input line: Note protein stability index for the variant shown: QKKDCVPLMKPHRPWADTCSSSNK [G23N]
Output line: 3.13

Input line: Name the recorded protein stability index of the item QKKDCFPLMKPHRPWADTCSSSGK [V6F] in your answer.
Output line: 3.28

Input line: Provide only the value of recorded protein stability index for QHKDCVPLMKPHRPWADTCSSSGK [K2H]
Output line: 3.4

Input line: State its protein stability index: QKKDCVPLMKPHRPWADPCSSSGK [T18P]
Output line: 4.02

Input line: Specify measured protein stability index for QKKDCVPLMKPHQPWADTCSSSGK [R13Q] .
Output line: 4.18

Input line: Identify measured protein stability index corresponding to QKKDCVPLMKPHRPWADTVSSSGK [C19V]
Output line: 2.17

Input line: Identify protein stability index associated with the variant FKKDCVPLMKPHRPWADTCSSSGK [Q1F]
Output line: 3.17
